# target_or_system: T1, TAM-AT1-AT2 Baz2B R760E (Homo sapiens, UniProt Q9UIF8 721-884, R760E)
# T1 sequence: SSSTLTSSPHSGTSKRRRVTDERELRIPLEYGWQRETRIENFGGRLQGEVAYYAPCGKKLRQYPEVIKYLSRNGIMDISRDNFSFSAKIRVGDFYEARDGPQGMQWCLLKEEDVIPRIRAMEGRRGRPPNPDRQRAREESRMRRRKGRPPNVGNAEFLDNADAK
# assay_comment: EMSA; EMSA: 20 mM HEPES pH 7.5, 30 mM KCl, 1 mM EDTA, 10 mM (NH4)2SO4, 1 mM DTT, 4 C, 10 nM probe; MST: same plus 0.1 ug/ml BSA, 5 nM probe, 25 C; GST-AT-hook and bromodomain EMSA as in cited refs
# condition_summary: protein: recombinant; tags: His6
readout_type: pKd
By convention, pKd is the negative base-10 log of a molar concentration.

Request the reported pKd associated with ATCAGTTCTCCGGGTTGTCAGGTCGACCAGTTGTTCCTTTGAGGT (ssDNA) [45 nt ssDNA FLP015]
6.79
